Biological target: T1, murine CD22 protein (ACROBiosystems, SI2-M52Ha) (murine, UniProt P35329 22-708)
T1 construct: extracellular domain; also called murine CD22-ECD; murine CD22-ECD-His
T1 sequence (looked up): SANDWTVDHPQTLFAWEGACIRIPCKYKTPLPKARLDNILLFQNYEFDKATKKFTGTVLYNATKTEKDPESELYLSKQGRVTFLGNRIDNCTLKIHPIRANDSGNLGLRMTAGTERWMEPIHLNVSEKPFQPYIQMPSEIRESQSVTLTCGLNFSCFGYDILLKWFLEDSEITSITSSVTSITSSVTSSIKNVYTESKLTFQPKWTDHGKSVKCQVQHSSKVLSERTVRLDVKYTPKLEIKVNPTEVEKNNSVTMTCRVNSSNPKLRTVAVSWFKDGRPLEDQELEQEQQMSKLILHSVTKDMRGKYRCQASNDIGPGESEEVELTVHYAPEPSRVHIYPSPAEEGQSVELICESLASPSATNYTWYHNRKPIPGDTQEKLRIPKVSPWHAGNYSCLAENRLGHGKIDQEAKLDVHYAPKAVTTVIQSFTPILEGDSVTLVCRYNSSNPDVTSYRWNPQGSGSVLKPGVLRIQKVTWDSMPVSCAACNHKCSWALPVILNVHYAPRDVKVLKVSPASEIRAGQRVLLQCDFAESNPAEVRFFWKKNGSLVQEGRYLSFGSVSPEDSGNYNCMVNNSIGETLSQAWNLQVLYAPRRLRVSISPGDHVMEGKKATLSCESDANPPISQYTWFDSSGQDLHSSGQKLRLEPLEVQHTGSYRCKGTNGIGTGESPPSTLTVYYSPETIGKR
Experiment: ELISA, coated murine CD22, 0.1 nM Ab
recorded_metric: OD450

These solved cases illustrate the format of a correct answer.
binder	OD450
F2.180.16 human-murine chimeric antibody (antibody, human IgG1, lambda, V domains shown, Chimeric, human IgG1 / lambda) VH: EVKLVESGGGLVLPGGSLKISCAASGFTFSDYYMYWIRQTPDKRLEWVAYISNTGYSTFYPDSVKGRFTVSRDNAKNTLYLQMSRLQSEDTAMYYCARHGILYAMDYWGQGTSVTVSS VL: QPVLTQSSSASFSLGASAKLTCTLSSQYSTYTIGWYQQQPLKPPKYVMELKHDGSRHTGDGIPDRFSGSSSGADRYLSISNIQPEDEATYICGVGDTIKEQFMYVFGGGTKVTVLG	0.05 OD450
F1.231.15 human-murine chimeric antibody (antibody, human IgG1, V domains shown, Chimeric: murine V regions on human IgG1 heavy constant region and kappa light constant region) VH: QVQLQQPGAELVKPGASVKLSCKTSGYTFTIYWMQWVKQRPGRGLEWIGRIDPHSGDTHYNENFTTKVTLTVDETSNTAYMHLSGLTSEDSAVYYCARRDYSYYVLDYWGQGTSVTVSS VL: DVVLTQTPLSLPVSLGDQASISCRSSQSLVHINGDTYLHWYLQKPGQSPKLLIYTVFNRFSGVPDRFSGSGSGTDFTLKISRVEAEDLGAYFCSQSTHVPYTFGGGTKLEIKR	0.05 OD450

Now let's try a different one.
Per the records, this binder ( F1.224.1 human-murine chimeric antibody (antibody, human IgG1, kappa, V domains shown, Chimeric, human IgG1 / kappa; VL tied by name) VH: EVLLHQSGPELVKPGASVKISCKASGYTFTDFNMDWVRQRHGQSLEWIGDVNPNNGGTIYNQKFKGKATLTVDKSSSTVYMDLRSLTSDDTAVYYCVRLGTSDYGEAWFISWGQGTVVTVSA VL: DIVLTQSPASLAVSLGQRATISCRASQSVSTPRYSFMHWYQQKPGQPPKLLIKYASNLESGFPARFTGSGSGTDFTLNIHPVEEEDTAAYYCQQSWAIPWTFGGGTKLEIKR ) has OD450 equal to 0.05 OD450
